Tested on: HepG2 (2.2.15) cells
Assay: Viability of non-infected cells (CC50, Table 1)
Assay type: cell-based
Settings: reduces viability of non-infected cells by 50%
result.type: CC50 (µM)
Kindly answer with a numeric value in µM, unit omitted.

I am curious: what CC50 value has been reported for Nc1ccn([C@H]2CC[C@@H](CO)O2)c(=O)n1 ?
218

###

Test system: HSV-1 TK- in MRC-5 cells
Assay: Anti-HSV activity on MRC-5 cells, HSV-1 TK-
Type: cell-based, Herpes simplex virus type 1 TK-
Details: Human alphaherpesvirus 1, MRC5, read-out: HSV-1 TK- EC50
result.type: pEC50
// pEC50 is dimensionless: -log10 of concentration (M)

# lookup: pEC50 of CC(=O)SCCOP(=O)(OCCOCn1cnc2c(=O)[nH]c(N)nc21)OCCSC(C)=O [Bis(SATE)ACVMP]
4.00

Query (compound): CC(C)(C)C(=O)SCCOP(=O)(OCCOCn1cnc2c(=O)[nH]c(N)nc21)OCCSC(=O)C(C)(C)C [Bis(SPTE)ACVMP] ; field requested: pEC50
5.00

###

Please respond with reported pEC50 for every item in the list.
System: Hepatitis B virus (HBV) replication, HBV virion, in transfected HepG2 (2.2.15) cells
Assay: Anti-HBV activity on transfected HepG2 (2.2.15) cells (HBV virion)
Assay type: cell-based
Conditions: Hepatitis B virus, HepG2 2.2.15, transfected HepG2 (2.2.15) cells; 50% inhibition of HBV replication; read-out: HBV virion EC50
From the text: The experimental procedure used for evaluation of activity against Hepatitis B virus is as previously described by Korba and Milman in Antiviral Res. […]. 1. Anti-HBV activity on transfected HepG2 (2.2.15) cells of Bis(S-acyl-2-thioethyl)phosphotriester derivatives of Acyclovir, (compound 9 of Figure I), as compared with those of the parent nucleoside and of 2',3'-dideoxyguanosine (ddG) and 2',3'-dideoxycytidine (ddC) are shown in Table 1. […]
Reminder that pEC50 means the negative base-10 logarithm of the concentration expressed in mol/L.

Name the recorded pEC50 for CC(=O)SCCOP(=O)(OCCOCn1cnc2c(=O)[nH]c(N)nc21)OCCSC(C)=O [Bis(SATE)ACVMP] .
6.15

Requested read-out: pEC50. Entry: CC(C)(C)C(=O)SCCOP(=O)(OCCOCn1cnc2c(=O)[nH]c(N)nc21)OCCSC(=O)C(C)(C)C [Bis(SPTE)ACVMP]
6.70

###

Assay: in vitro
Type: cell-based
Conditions: human, cem cells
result.type: cytotoxicity at 120 h, 10 µM (%)
Write the number in % without appending the unit.

Entry CC(C)(C)C(=O)SCCOP(=O)(OCCOCn1cnc2c(=O)[nH]c(N)nc21)OCCSC(=O)C(C)(C)C [Bis(SPTE)ACVMP] has what cytotoxicity at 120 h, 10 µM?
26

###

I'd be grateful if you could share measured CC50 for these entries.
Assay: Viability of non-infected cells (CC50, Table 1)
Format: cell-based
Details: human, hepg2 2.2.15 cells, reduces viability of non-infected cells by 50%
Give the quantity in µM, number only.

Dear colleague, I am looking for the recorded CC50 of the following compound: CC(C)(C)C(=O)SCCOP(=O)(OCCOCn1cnc2c(=O)[nH]c(N)nc21)OCCSC(=O)C(C)(C)C [Bis(SPTE)ACVMP]
1590

What value of CC50 has been recorded for this entry: Nc1ccn([C@H]2CC[C@@H](CO)O2)c(=O)n1 [ddC, 2',3'-dideoxycytidine]
219

Name the reported CC50 value associated with the compound Nc1nc2c(ncn2COCCO)c(=O)[nH]1 [Acyclovir, acyclovir]
631

So what does the record say about CC50 for CC(=O)SCCOP(=O)(OCCOCn1cnc2c(=O)[nH]c(N)nc21)OCCSC(C)=O [Bis(SATE)ACVMP] ?
987

###

Assay: in vitro
Format: cell-based
Settings: human, cem cells
Method: The toxic effect on non-infected CEMs is assessed by a […] reaction based on the capacity of living cells to reduce 3-(4,5 dimethylthiazol-2-yl)-2,5 diphenyltetrazolium bromide into formazan after incubation for five days in the presence of various concentrations of the compounds. The results are expressed as the lowest concentration of compound which results in at least 50% inhibition of the formation of formazan (CD50). 2. […]
result.type: cytotoxicity at 120 h, 100 µM (%)
Numbers only here, please. The scale is %.

What value of cytotoxicity at 120 h, 100 µM has been reported for the following compound? Nc1nc2c(ncn2COCCO)c(=O)[nH]1 [Acyclovir, acyclovir]
0

So what does the record say about cytotoxicity at 120 h, 100 µM for Cc1cn([C@H]2C[C@H](N=[N+]=[N-])[C@@H](CO)O2)c(=O)[nH]c1=O [AZT] ?
5

What cytotoxicity at 120 h, 100 µM value was documented for this compound, CC(=O)SCCOP(=O)(OCCOCn1cnc2c(=O)[nH]c(N)nc21)OCCSC(C)=O [Bis(SATE)ACVMP] ?
0

###

Experiment: in vitro
Format: cell-based
Settings: human, cem cells
Assignment: determine reported CC50 at 120 h for the given molecules.

# query: CC50 at 120 h of entry Cc1cn([C@H]2C[C@H](N=[N+]=[N-])[C@@H](CO)O2)c(=O)[nH]c1=O
> 100 µM

Looking for the measured CC50 at 120 h of Nc1nc2c(ncn2COCCO)c(=O)[nH]1 , can you help?
> 100 µM

Given the entry CC(C)(C)C(=O)SCCOP(=O)(OCCOCn1cnc2c(=O)[nH]c(N)nc21)OCCSC(=O)C(C)(C)C [Bis(SPTE)ACVMP] , report its measured CC50 at 120 h.
> 10 µM

Given the entry CC(=O)SCCOP(=O)(OCCOCn1cnc2c(=O)[nH]c(N)nc21)OCCSC(C)=O [Bis(SATE)ACVMP] , report its measured CC50 at 120 h.
> 100 µM
